- Tested system: panel of 203 kinases (Homo sapiens, UniProt Q9Y2H1)
- Construct: purchased DiscoverX (KINOMEscan)
- Procedure summary: KINOMEscan competitive binding, whole panel
- Test parameters: 10 µM, n=1; kinase NDR2; read-out: Percent inhibition NDR2
Form field: inhibition at 10 µM (one value per entry).
The reply should be a number in %, with the unit left off.

Kindly state the measured inhibition at 10 µM obtained for Clc1ccc(Nc2ncc(-c3ccccc3)s2)cc1 with panel of 203 kinases (Homo sapiens, UniProt Q9Y2H1).
0

# get_value(readout= inhibition at 10 µM, system= panel of 203 kinases (Homo sapiens, UniProt Q9Y2H1)) for COc1cc(Nc2nccc(-c3sc(N)nc3-c3cccc(NC(=O)c4c(F)cccc4F)c3)n2)cc(OC)c1OC
100

Can you look up inhibition at 10 µM on panel of 203 kinases (Homo sapiens, UniProt Q9Y2H1) for c1ccc(COc2cccc(-c3ccnc4[nH]ccc34)c2)cc1 ?
0

Form: Entry = Fc1cccc(COc2ccc(Nc3ncnc4c3CN(CCN3CCOCC3)CC4)cc2Cl)c1 | System = panel of 203 kinases (Homo sapiens, UniProt Q9Y2H1) | inhibition at 10 µM = ____
0

Report inhibition at 10 µM for C[C@@H](Oc1cc(-c2cnc3ccccn23)sc1C(N)=O)c1ccccc1Cl tested on panel of 203 kinases (Homo sapiens, UniProt Q9Y2H1).
0

Request: inhibition at 10 µM, test system panel of 203 kinases (Homo sapiens, UniProt Q9Y2H1), entry Cc1ccc(O)cc1Nc1ccnc(Nc2cccc(C(N)=O)c2)n1
0

Test system panel of 203 kinases (Homo sapiens, UniProt Q9Y2H1); read-out inhibition at 10 µM; what value for CN1CCN(c2ccc(Nc3nccc(-c4cnn5ncccc45)n3)cc2C#N)CC1 ?
0

----------
Listed compounds paired with reported inhibition at 10 µM
- Tested system: panel of 203 kinases (Homo sapiens)
- Construct: purchased DiscoverX (KINOMEscan)
- Procedure summary: KINOMEscan competitive binding, whole panel
- Test parameters: 10 µM, n=1; kinase EPHA8; read-out: Percent inhibition EPHA8
State just the number; it will be interpreted in %.

Clc1ccc(Nc2ncc(-c3ccccc3)s2)cc1	0
COc1cc(Nc2nccc(-c3sc(N)nc3-c3cccc(NC(=O)c4c(F)cccc4F)c3)n2)cc(OC)c1OC	100
Cc1ccc(O)cc1Nc1ccnc(Nc2cccc(C(N)=O)c2)n1	100
Nc1ncc2c(-c3ccncc3)c[nH]c2n1	0
c1ccc(COc2cccc(-c3ccnc4[nH]ccc34)c2)cc1	0

What value of measured inhibition at 10 µM is listed for COc1ccc(Nc2nccc(-c3cnn4ncccc34)n2)cc1 ?
0

----------
- Tested system: panel of 203 kinases (Homo sapiens)
- Construct: purchased DiscoverX (KINOMEscan)
- Procedure summary: KINOMEscan competitive binding, whole panel
- Test parameters: 10 µM, n=1; kinase FES; read-out: Percent inhibition FES
Answer Not satisfied if inhibition at 10 µM is under 80%, and Satisfied if it is 80% or more.

Cc1ccc(O)cc1N(C)c1ccnc(Nc2cccc(S(N)(=O)=O)c2)n1	Satisfied
Nc1ncc2c(-c3ccncc3)c[nH]c2n1	Not satisfied
CN1CCN(c2ccc(Nc3nccc(-c4cnn5ncccc45)n3)cc2C#N)CC1	Not satisfied

Does c1ccc(COc2cccc(-c3ccnc4[nH]ccc34)c2)cc1 have a reported inhibition at 10 µM of at least 80%?
Not satisfied

Item Cc1ccc(O)cc1Nc1ccnc(Nc2cccc(C(N)=O)c2)n1 with inhibition at 10 µM of 80% or above?
Satisfied

State whether the measured inhibition at 10 µM reaches 80%, counting equality as reaching it, for Fc1cccc(COc2ccc(Nc3ncnc4c3CN(CCN3CCOCC3)CC4)cc2Cl)c1
Not satisfied

Hello, I need to know if Clc1ccc(Nc2ncc(-c3ccccc3)s2)cc1 has measured inhibition at 10 µM not below 80%. Thanks!
Not satisfied

Quick check, inhibition at 10 µM >= 80%? COc1cc(Nc2nccc(-c3sc(N)nc3-c3cccc(NC(=O)c4c(F)cccc4F)c3)n2)cc(OC)c1OC
Satisfied

Confirm if inhibition at 10 µM reported for the compound COc1ccc(Nc2nccc(-c3cnn4ncccc34)n2)cc1 is 80% or above.
Satisfied

API: above_or_equal(metric=inhibition at 10 µM, cutoff=80%) for item C[C@@H](Oc1cc(-c2cnc3ccccn23)sc1C(N)=O)c1ccccc1Cl
Not satisfied

----------
- Tested system: PIM1 (Homo sapiens)
- Construct: purchased DiscoverX (KINOMEscan)
- Procedure summary: KINOMEscan competitive binding
- Test parameters: n=1, read-out: Percent inhibition, PIM1
Item-by-item account of inhibition at 10 µM
Dear colleague, please send the value followed by its unit.

Clc1ccc(Nc2ncc(-c3ccccc3)s2)cc1	0%
Cc1ccc(O)cc1N(C)c1ccnc(Nc2cccc(S(N)(=O)=O)c2)n1	0%
Nc1ncc2c(-c3ccncc3)c[nH]c2n1	0%
CN1CCN(c2ccc(Nc3nccc(-c4cnn5ncccc45)n3)cc2C#N)CC1	99.8%

Fill in the blank: the reported inhibition at 10 µM of Fc1cccc(COc2ccc(Nc3ncnc4c3CN(CCN3CCOCC3)CC4)cc2Cl)c1 is ____.
0%

Sample COc1ccc(Nc2nccc(-c3cnn4ncccc34)n2)cc1 — what was its inhibition at 10 µM?
0%

I'd like to know its inhibition at 10 µM. The compound in question is COc1cc(Nc2nccc(-c3sc(N)nc3-c3cccc(NC(=O)c4c(F)cccc4F)c3)n2)cc(OC)c1OC
0%

If you can, please state the reported inhibition at 10 µM value of Cc1ccc(O)cc1Nc1ccnc(Nc2cccc(C(N)=O)c2)n1 .
0%

Entry C[C@@H](Oc1cc(-c2cnc3ccccn23)sc1C(N)=O)c1ccccc1Cl has what inhibition at 10 µM?
76.4%

Given the entry c1ccc(COc2cccc(-c3ccnc4[nH]ccc34)c2)cc1 , report its measured inhibition at 10 µM.
0%

----------
Below is a list of entries, each paired with its recorded inhibition at 10 µM value.
- Tested system: ROS1 (Homo sapiens, UniProt P08922)
- Construct: purchased DiscoverX (KINOMEscan)
- Procedure summary: KINOMEscan competitive binding
- Test parameters: n=1, read-out: Percent inhibition, ROS1
Hi! Could you send only the number? It should be in %, unit omitted.

Cc1ccc(O)cc1N(C)c1ccnc(Nc2cccc(S(N)(=O)=O)c2)n1	90

Lab note: need inhibition at 10 µM for Clc1ccc(Nc2ncc(-c3ccccc3)s2)cc1 on ROS1 (Homo sapiens, UniProt P08922), anyone have it?
0

Short answer please: inhibition at 10 µM, ROS1 (Homo sapiens, UniProt P08922), entry COc1cc(Nc2nccc(-c3sc(N)nc3-c3cccc(NC(=O)c4c(F)cccc4F)c3)n2)cc(OC)c1OC
80.6

Field: inhibition at 10 µM (ROS1 (Homo sapiens, UniProt P08922)). Entry: Cc1ccc(O)cc1Nc1ccnc(Nc2cccc(C(N)=O)c2)n1
0

Request - read-out inhibition at 10 µM | tested on ROS1 (Homo sapiens, UniProt P08922) | compound COc1ccc(Nc2nccc(-c3cnn4ncccc34)n2)cc1
90.3

What measured inhibition at 10 µM is associated with Nc1ncc2c(-c3ccncc3)c[nH]c2n1 on ROS1 (Homo sapiens, UniProt P08922)?
0

----------
- Tested system: TLK1 (Homo sapiens, UniProt Q9UKI8)
- Construct: purchased DiscoverX (KINOMEscan)
- Procedure summary: KINOMEscan competitive binding
- Test parameters: n=1, read-out: Percent inhibition, TLK1
inhibition at 10 µM by entry:
Numbers only; they are read as %.

# count of solved cases: 4
COc1ccc(Nc2nccc(-c3cnn4ncccc34)n2)cc1 [Compound 2]	0
Clc1ccc(Nc2ncc(-c3ccccc3)s2)cc1 [Compound 10]	0
Cc1ccc(O)cc1N(C)c1ccnc(Nc2cccc(S(N)(=O)=O)c2)n1 [Compound 4]	0
Fc1cccc(COc2ccc(Nc3ncnc4c3CN(CCN3CCOCC3)CC4)cc2Cl)c1 [Compound 6]	0

// query inhibition at 10 µM value for entry COc1cc(Nc2nccc(-c3sc(N)nc3-c3cccc(NC(=O)c4c(F)cccc4F)c3)n2)cc(OC)c1OC [Compound 7]
0

----------
- Tested system: CDK2 (Homo sapiens, UniProt P24941)
- Construct: purchased DiscoverX (KINOMEscan)
- Procedure summary: KINOMEscan competitive binding
- Test parameters: 10 µM, n=1; kinase CDK2; read-out: Percent inhibition CDK2
Measurement type: inhibition at 10 µM (%)
Your answer should be a plain number; it is taken to be in %.

Given C[C@@H](Oc1cc(-c2cnc3ccccn23)sc1C(N)=O)c1ccccc1Cl [Compound 8] , state its recorded inhibition at 10 µM.
0

Entry CN1CCN(c2ccc(Nc3nccc(-c4cnn5ncccc45)n3)cc2C#N)CC1 [Compound 1] has what inhibition at 10 µM?
99.5

Any idea what inhibition at 10 µM was measured for Clc1ccc(Nc2ncc(-c3ccccc3)s2)cc1 [Compound 10] ?
0

I would be grateful if you could share the reported inhibition at 10 µM for Cc1ccc(O)cc1Nc1ccnc(Nc2cccc(C(N)=O)c2)n1 [Compound 3] .
0

What measured inhibition at 10 µM goes with Cc1ccc(O)cc1N(C)c1ccnc(Nc2cccc(S(N)(=O)=O)c2)n1 [Compound 4] ?
0

Look at this compound and give its reported inhibition at 10 µM. Fc1cccc(COc2ccc(Nc3ncnc4c3CN(CCN3CCOCC3)CC4)cc2Cl)c1 [Compound 6]
0

Quick one: inhibition at 10 µM of Nc1ncc2c(-c3ccncc3)c[nH]c2n1 [Compound 11] ?
0
